experiment: antiproliferative effect on LL 47 fibroblasts – human, LL 47 cells, CellTiter-Glo luminescence, primary screen (AID 719); settings: LL 47 human lung fibroblast viability, ATP luminescence; at 10 µM; active compounds read low;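 note: compound exposure lasted 72 h before the ATP readout; 100% = median luminescence of untreated cell-only wells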
Out of some 85,000 compounds screened, about 940 (1.1%) were called active. Only a selection was taken, and actives are over-represented in it overall.
OBSERVED_PROPERTY: viability (%)
A number alone suffices; assume %.

For Cc1cccc(OCCCC(=O)Nc2ccc(S(=O)(=O)N3CCCC3)cc2)c1 the molecule record lists viability as 98.6

For CCC(C(=O)NCc1ccc(OC)cc1)n1nc(C)n2c(cc3occc32)c1=O (stereo unspecified) the molecule record lists viability as 95.5

For Cc1sc2nc(SCC(N)=O)n(C)c(=O)c2c1C the molecule record lists viability as 93.8

For C=CCn1c(SCC(=O)/C(C#N)=C(\C)N)nc2sc(C)c(C)c2c1=O the molecule record lists viability as 34.3

For CCOc1ccc(NC(=O)C2CCCN(C(=O)Nc3ccccc3)C2)cc1 (stereo unspecified) the molecule record lists viability as 105

For Cn1c(=O)n(C)c2cc(C(=O)Nc3ccc4c(c3)OCO4)ccc21 the molecule record lists viability as 48.5

For CCCn1c(=O)c2ccccc2n2c(SCC(=O)/C(C#N)=C(\C)N)nnc12 the molecule record lists viability as 93.4

For COC(=O)c1cccc(-n2[nH]nnc2=S)c1 the molecule record lists viability as 102

For Oc1c(Cl)cc(Cl)c(Cl)c1Cc1c(O)c(Cl)cc(Cl)c1Cl the molecule record lists viability as 46.4

For CCOc1ccc(-n2c(N)c(C(=O)NCC3CCCO3)sc2=S)cc1 (stereo unspecified) the molecule record lists viability as 101

For Cc1cc(C)cc(N(CC(=O)N2CC=C(c3ccccc3)CC2)S(=O)(=O)c2c(C)noc2C)c1 the molecule record lists viability as 95.6

* * *

experiment: antiproliferative effect on LL 47 fibroblasts – human, LL 47 cells, CellTiter-Glo luminescence, primary screen (AID 719); details: LL 47 human lung fibroblast viability, ATP luminescence; at 10 µM; active compounds read low;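 note: compound exposure lasted 72 h before the ATP readout; 100% = median luminescence of untreated cell-only wells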
Out of some 85,000 compounds screened, about 940 (1.1%) were called active. The full list was thinned out, with actives kept by preference.
OBSERVED_PROPERTY: viability (%)
A number alone suffices; assume %.

For Nc1nonc1-c1nc2ccccc2n1Cc1ccc(F)cc1 the compound record lists viability as 52.3

For Cc1ccc(S(=O)(=O)NCCN2CCOCC2)cc1C the compound record lists viability as 108

For COc1ccc(CNCCCO)cc1OC the compound record lists viability as 95.2

For CC(=O)CCS(=O)(=O)c1ccc(C)c(C)c1 the compound record lists viability as 32.5

For CCCc1[nH]nc2c1C(c1ccc(OC)c(Cn3nc(C)c(Br)c3C)c1)C(C#N)=C(N)O2 (centres undefined) the compound record lists viability as 95.9

For Cc1cc(NC(=O)CSc2nc(C(C)C)nc3sc4c(c23)CCC(C)C4)no1 (centres undefined) the compound record lists viability as 10.9

For CCOc1ccc(Cn2nnc(C(=O)NCc3ccccc3)c2N)cc1 the compound record lists viability as 84.8

For CCCc1[nH]nc2c1C(c1ccc(OC(=O)c3ccco3)cc1)C(C#N)=C(N)O2 (centres undefined) the compound record lists viability as 95.1

For O=C(CC(O)(C(F)(F)F)C(F)(F)F)Nc1ccc(Cl)c(Cl)c1 the compound record lists viability as 22.4

For Cc1nc(SCC(=O)Nc2cc(C)on2)c2c(C)c(C)sc2n1 the compound record lists viability as 99.4

For N/C(=N\OC(=O)Nc1ccc(Cl)c(Cl)c1)c1ncc(C(F)(F)F)cc1Cl the compound record lists viability as 97.2

For O=C1Nc2ccccc2C12Nc1ccccc1S2 (centres undefined) the compound record lists viability as 92.1

For CCCc1[nH]nc2c1C(c1ccc(Br)s1)C(C#N)=C(N)O2 (centres undefined) the compound record lists viability as 33.5

For Cc1ccc(N(Cc2ccc(C(=O)Nc3ccccc3C(=O)NCc3ccco3)cc2)S(C)(=O)=O)cc1C the compound record lists viability as 97

For CCn1nnnc1SCC(=O)c1ccc(C)cc1C the compound record lists viability as 99.4

For CCOc1ccc(Cn2nnc(C(=O)Nc3ccc(OC)cc3OC)c2N)cc1 the compound record lists viability as 81.2

For Nc1c(C(=O)NCc2ccccc2)nnn1Cc1cccc(Cl)c1 the compound record lists viability as 44.6

For CCc1ccc2c(c1)C1(NN=C(c3ccccc3)S1)C(=O)N2 (centres undefined) the compound record lists viability as 32.1

For Cc1ccc(-c2cc(C(=O)NCC3CCCO3)c3ccccc3n2)o1 (centres undefined) the compound record lists viability as 98.3

For C=C1c2cc(CC)ccc2NC(=O)N1c1ccc(C)cc1 the compound record lists viability as 102

For CC1(C)CC(=O)C=C(N2CCCC2)C1 the compound record lists viability as 112

For O=C(NCc1cccnc1)Nc1ccccc1F the compound record lists viability as 96.7

For COc1ccc(C)c(Cn2c(-c3nonc3N)nc3ccccc32)c1 the compound record lists viability as 42.2

For Cc1nc(SCC(=O)Nc2cc(C)on2)c2c3c(sc2n1)CCCC3 the compound record lists viability as 94.8

Where these numbers come from: PubChem BioAssay AID719
